# measurement.target: mouse Siglec-2-Fc-Avi (CD22) (Mus musculus, UniProt P35329)
# Sequence (P35329 22-708 limits assumed): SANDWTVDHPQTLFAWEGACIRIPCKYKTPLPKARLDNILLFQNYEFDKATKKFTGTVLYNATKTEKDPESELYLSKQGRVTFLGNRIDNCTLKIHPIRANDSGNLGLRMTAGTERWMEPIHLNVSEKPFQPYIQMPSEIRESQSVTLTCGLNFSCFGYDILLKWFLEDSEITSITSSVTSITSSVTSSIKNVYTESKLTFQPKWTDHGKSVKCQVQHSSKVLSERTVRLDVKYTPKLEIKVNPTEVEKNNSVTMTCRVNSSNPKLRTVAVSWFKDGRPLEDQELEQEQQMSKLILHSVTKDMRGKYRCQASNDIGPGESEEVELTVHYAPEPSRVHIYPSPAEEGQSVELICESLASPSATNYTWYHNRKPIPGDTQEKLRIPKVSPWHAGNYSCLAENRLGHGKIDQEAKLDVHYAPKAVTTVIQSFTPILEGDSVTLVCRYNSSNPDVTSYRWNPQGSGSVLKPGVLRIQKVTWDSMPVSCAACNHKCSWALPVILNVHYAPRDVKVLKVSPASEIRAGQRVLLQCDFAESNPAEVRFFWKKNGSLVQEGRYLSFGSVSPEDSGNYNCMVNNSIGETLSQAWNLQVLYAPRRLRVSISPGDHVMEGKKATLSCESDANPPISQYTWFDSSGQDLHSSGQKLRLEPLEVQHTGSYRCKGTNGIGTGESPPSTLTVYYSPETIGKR
pKd: −log10 of the molar value.
Provide the recorded pKd for the entries that follow.

Use the examples below as a reference point.
1. C#CCCOc1ccc(CO[C@]2(C(=O)O)C[C@H](O)[C@@H](NC(=O)CO)[C@H]([C@H](O)[C@H](O)CNC(=O)Cc3cccc(N4CCOCC4)c3)O2)cc1 = 5.00 to 6.00
2. C#CCOCCCCCCO[C@]1(C(=O)O)C[C@H](O)[C@@H](NC(=O)CO)[C@H]([C@H](O)[C@H](O)CNC(=O)Cc2ccc(C3CC3)cc2)O1 = > 6.00
3. C#CCOCCOCCNc1c(NCCCCCCO[C@]2(C(=O)O)C[C@H](O)[C@@H](NC(=O)CO)[C@H]([C@H](O)[C@H](O)CNC(=O)c3ccc(F)cc3)O2)c(=O)c1=O = < 5.00
4. C#CCOCCOCCO[C@@]1(C(=O)O)O[C@@H]([C@H](O)[C@H](O)CNC(=O)Cc2ccc(-c3ccccc3)cc2)[C@H](NC(=O)CO)[C@@H](NC(=O)CC)[C@@H]1O = < 5.00

Query compound follows.
The compound CC(=O)NCCOCCOCCOCCOCCC(=O)NCCOCCOCCO[C@]1(C(=O)O)C[C@H](O)[C@@H](NC(=O)CO)[C@H]([C@H](O)[C@H](O)CNC(=O)Cc2ccc(Cl)cc2)O1 showed pKd equal to 5.00 to 6.00

---

# measurement.target: cynomolgus Siglec-2/CD22 (Macaca fascicularis)
# Sequence (A0A2K5WCZ6 entry or part of it): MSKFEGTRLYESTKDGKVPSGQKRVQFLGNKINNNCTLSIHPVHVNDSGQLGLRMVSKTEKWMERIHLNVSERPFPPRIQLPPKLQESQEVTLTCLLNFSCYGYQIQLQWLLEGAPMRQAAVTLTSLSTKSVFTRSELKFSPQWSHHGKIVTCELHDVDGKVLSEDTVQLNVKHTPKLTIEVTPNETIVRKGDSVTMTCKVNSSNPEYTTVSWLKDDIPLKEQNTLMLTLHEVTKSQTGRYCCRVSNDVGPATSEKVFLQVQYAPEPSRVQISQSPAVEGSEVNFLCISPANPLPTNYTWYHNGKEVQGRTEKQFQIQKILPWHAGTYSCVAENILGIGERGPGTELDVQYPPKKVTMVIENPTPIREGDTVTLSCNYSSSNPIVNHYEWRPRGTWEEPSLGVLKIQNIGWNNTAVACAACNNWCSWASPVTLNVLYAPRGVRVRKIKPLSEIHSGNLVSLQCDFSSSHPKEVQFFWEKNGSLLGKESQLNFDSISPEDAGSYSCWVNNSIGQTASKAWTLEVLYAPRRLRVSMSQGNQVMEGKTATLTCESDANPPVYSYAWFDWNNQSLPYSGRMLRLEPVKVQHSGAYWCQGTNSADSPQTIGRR
# protocol.text: biochemical
# condition.label: SPR, steady-state analysis; read-out: Affinity cyno CD22
Provide the recorded Kd for the entries that follow.

Use the examples below as a reference point.
1. C#CCOCCCCCCO[C@]1(C(=O)O)C[C@H](O)[C@@H](NC(=O)CO)[C@H]([C@H](O)[C@H](O)CNC(=O)Cc2ccc(Cl)c(C(F)(F)F)c2)O1 [Compound 127] = < 1 µM
2. C#CCOc1ccc(CO[C@]2(C(=O)O)C[C@H](O)[C@@H](NC(=O)CO)[C@H]([C@H](O)[C@H](O)CNC(=O)Cc3ccccc3O)O2)cc1 [Compound 145] = 1 to 10 µM
3. C#CCOCCOCCO[C@]1(C(=O)O)C[C@H](O)[C@@H](NC(=O)CO)[C@H]([C@H](O)[C@H](O)CNC(=O)Cc2cccc(Cl)c2)O1 [Compound 125] = 1 to 10 µM
4. C#CCCCCCCO[C@]1(C(=O)O)C[C@H](O)[C@@H](NC(=O)CO)[C@H]([C@H](O)[C@H](O)CNC(=O)C(F)(F)c2ccccc2)O1 [Compound 42] = < 1 µM
5. C#CCOc1ccc(CO[C@]2(C(=O)O)C[C@H](O)[C@@H](NC(=O)CO)[C@H]([C@H](O)[C@H](O)CNC(=O)Cc3ccc(O)cc3)O2)cc1 [Compound 146] = < 1 µM
6. C#CCOCCNc1c(NCCCCCCO[C@]2(C(=O)O)C[C@H](O)[C@@H](NC(=O)CO)[C@H]([C@H](O)[C@H](O)CNC(=O)Cc3ccc(C(F)F)cc3)O2)c(=O)c1=O [Compound 216] = < 1 µM
7. CC(=O)NCCOCCOCCOCCOCCC(=O)NCCOCCOCCO[C@]1(C(=O)O)C[C@H](O)[C@@H](NC(=O)CO)[C@H]([C@H](O)[C@H](O)CNC(=O)Cc2ccc(-c3ccccc3)cc2)O1 [Compound 236] = 1 to 10 µM
8. O=C(Cc1ccc(Cl)cc1)NC[C@@H](O)[C@@H](O)[C@@H]1O[C@@](SCc2ccc(C(=O)O)cc2)(C(=O)O)C[C@H](O)[C@H]1NC(=O)CO [Compound 195] = < 1 µM

Hi! Can you tell me Kd for each of these compounds?
1. C#CCOCCOCCNc1c(NCCCCCCO[C@]2(C(=O)O)C[C@H](O)[C@@H](NC(=O)CO)[C@H]([C@H](O)[C@H](O)CNC(=O)c3ccc(F)cc3)O2)c(=O)c1=O [Compound 232]
2. C#CCOCCCCCCO[C@]1(C(=O)O)C[C@H](O)[C@@H](NC(=O)CO)[C@H]([C@H](O)[C@H](O)CNC(=O)Cc2ccc(-c3nnn[nH]3)cc2)O1 [Compound 176]

Reply text:
1 to 10 µM
< 1 µM

Hi! Can you tell me Kd for each of these compounds?
1. C#CCCOc1ccc(CO[C@]2(C(=O)O)C[C@H](O)[C@@H](NC(=O)CO)[C@H]([C@H](O)[C@H](O)CNC(=O)Cc3cccc(-c4ccccc4O)c3)O2)cc1 [Compound 46]
2. C#CCC(NC(=O)CCCO[C@]1(C(=O)O)C[C@H](O)[C@@H](NC(=O)CO)[C@H]([C@H](O)[C@H](O)CNC(=O)Cc2ccc(Cl)cc2)O1)C(=O)O (stereo partly drawn) [Compound 102]

Reply text:
1. 1 to 10 µM
2. 1 to 10 µM

All figures here come from patent US20250064941A1.
